Molecular target: T1, His9-hMSR1 (human MSR1 extracellular domain) (Homo sapiens, UniProt P21757)
T1 construct: human MSR1 extracellular domain expressed with a N-terminal nonahistidine tag; purchased R&D Systems 2708-MS
T1 sequence (P21757 77-451 limits assumed): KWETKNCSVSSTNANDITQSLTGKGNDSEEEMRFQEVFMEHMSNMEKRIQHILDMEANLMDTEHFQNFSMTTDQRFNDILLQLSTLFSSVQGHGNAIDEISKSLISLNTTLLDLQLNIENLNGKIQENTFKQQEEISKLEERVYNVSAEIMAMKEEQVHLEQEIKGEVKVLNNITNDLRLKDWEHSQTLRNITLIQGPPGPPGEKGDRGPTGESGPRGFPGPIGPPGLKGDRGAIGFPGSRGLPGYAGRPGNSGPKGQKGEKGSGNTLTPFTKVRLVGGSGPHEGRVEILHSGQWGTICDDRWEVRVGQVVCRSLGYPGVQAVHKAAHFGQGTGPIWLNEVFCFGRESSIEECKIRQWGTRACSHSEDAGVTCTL
Assay: Biacore surface plasmon resonance binding kinetics
Conditions: His9-hMSR1 binding to captured antibody, 25° C.
reportedProperty: ka
A bare number is not enough; add the unit after it.

Use these answered entries as a reference point.
molecule	recordedMeasurement
H1H27729P-N297Q (antibody, V domains shown) VH: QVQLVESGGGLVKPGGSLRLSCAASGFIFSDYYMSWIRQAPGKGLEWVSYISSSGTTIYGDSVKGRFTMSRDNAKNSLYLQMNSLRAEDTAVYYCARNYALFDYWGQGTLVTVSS VL: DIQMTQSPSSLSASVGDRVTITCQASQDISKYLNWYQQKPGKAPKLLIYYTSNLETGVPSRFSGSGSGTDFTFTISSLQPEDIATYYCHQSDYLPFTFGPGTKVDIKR	105000 M⁻¹ s⁻¹
H1H27739P-N297Q (antibody, V domains shown) VH: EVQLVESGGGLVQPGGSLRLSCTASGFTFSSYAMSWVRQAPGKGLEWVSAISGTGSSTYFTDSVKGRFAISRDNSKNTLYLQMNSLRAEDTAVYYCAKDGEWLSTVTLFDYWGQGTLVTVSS VL: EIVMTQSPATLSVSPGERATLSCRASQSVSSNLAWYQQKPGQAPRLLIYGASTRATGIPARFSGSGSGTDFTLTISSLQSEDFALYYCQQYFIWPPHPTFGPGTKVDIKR	119000 M⁻¹ s⁻¹

Okay, next one:
Q: Using known records, supply ka for H1H27731P-N297Q (antibody, V domains shown) VH: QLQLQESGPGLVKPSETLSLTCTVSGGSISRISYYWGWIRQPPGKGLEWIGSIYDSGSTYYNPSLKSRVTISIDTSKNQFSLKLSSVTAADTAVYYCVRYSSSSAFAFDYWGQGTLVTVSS VL: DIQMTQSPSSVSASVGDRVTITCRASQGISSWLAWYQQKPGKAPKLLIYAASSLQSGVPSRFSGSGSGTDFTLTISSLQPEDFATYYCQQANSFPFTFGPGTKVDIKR
Ans: 117000 M⁻¹ s⁻¹
